# System Tested: T1, Strep tagged recombinant human PD-1 (human, UniProt Q15116 25-170, limits assumed)
# T1 construct: the whole entry is named; also called strep tagged human PD-1; not shown: Strep tag
# T1 sequence (Q15116 25-170 limits assumed): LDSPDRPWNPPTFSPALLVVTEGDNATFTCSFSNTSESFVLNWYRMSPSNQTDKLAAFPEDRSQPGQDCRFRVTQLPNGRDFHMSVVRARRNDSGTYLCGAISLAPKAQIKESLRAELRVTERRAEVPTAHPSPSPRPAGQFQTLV
# Protocol: SPR Biacore T200, strep-tagged PD-1 amine-coupled, single cycle kinetics
Outcome Measure: Kd (nM)
The figure you give is taken to be in nM; do not add the unit.

Illustrative cases are given below, each with its answer.
Binder: Humabody® 1.96 (VHH, human VH single domain antibody) VHH: EVQLVESGGGLVKPGGSLRLSCAASGFTFSDTSMTWMRQAPGKGLEWVSYISSGGGVKFYADSVKGRFTISRDNAKNSLYLQMNSLRAEDTAVYYCAREAPLRLGESPHDAFDISGQGTMVTVSS
Kd, nM: 0.08

Binder: Humabody® 1.84 (VHH, human VH single domain antibody) VHH: EVQLVESGGGLVKPGGSLRLSCAASGFTFSDESMTWMRQAPGKGLEWVSYISSGGGVKFYTDSVKGRFTISRDNAKNSLYLQMNSLRAEDTAVYYCAREAPLRLGESPHDAFDISGQGTMVTVSS
Kd, nM: 0.091

Binder: Humabody® 1.105 (VHH, human VH single domain antibody) VHH: EVQLVESGGGLVKPGGSLRLSCAASGFTFSDESLTWMRQAPGKGLEWVSYISSGGGVKFYTDSVKGRFTISRDNAKNSLYLQMNSLRAEDTAVYYCAREAPLRLGESPHDAFDISGQGTMVTVSS
Kd, nM: 0.091

We next turn to a different binder, shown below.
Sample Humabody® 1.89 (VHH, human VH single domain antibody) VHH: EVQLVESGGGLVKPGGSLRLSCAASGFTFSDYSMTWMRQAPGKGLEWVSYISSGGGVKFYADSVKGRFTISRDNAKNSLYLQMNSLRAEDTAVYYCAREAPLRLGESPHDAFDISGQGTMVTVSS ; Kd observed: 0.0342

Provenance of the data: patent US20200239573A1
